# Assay notes: Displacement of [3H]prazosin from adrenergic alpha1 receptor
Attribute measured: pKi
Note on units: pKi is unitless, being -log10 of a concentration expressed in mol/L.

get_value(item= `COc1cc2nc(N3CCN(C(=O)c4ccco4)CC3)nc(N)c2cc1OC` , readout=pKi) returns 10.15

* * *

# System under test: UniProt:P48776
# Assay notes: Inhibition of mouse TDO expressed in mouse P815B cells assessed as inhibition of tryptophan catabolism by measuring kynurenine production after 8 hrs by HPLC analysis
# Format: cell-based
Quick reference for IC50 among some compounds

>  <Smiles representation>
Fc1ccc2c(/C=C/c3cccnc3)c[nH]c2c1

>  <Value reported>
1 µM

$$$$

The compound `C(#Cc1c[nH]c2ccccc12)c1cccnc1` , when measured on UniProt:P48776, yielded IC50 of 6 µM

* * *

# System under test: Tryptophan 2,3-dioxygenase (Mus musculus, UniProt P48776)
# Sequence (P48776 whole entry): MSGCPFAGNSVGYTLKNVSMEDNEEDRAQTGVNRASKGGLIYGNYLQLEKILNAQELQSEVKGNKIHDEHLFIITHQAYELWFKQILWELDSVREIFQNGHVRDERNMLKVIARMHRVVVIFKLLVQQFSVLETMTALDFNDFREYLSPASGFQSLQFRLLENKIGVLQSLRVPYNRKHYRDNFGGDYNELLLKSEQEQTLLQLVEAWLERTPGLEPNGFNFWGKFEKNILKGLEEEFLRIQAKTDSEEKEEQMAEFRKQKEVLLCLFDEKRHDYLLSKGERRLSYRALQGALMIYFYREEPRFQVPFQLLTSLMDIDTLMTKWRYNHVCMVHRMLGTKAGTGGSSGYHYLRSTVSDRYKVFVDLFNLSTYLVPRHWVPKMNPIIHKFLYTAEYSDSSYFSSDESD
# Assay notes: Inhibition of mouse TDO expressed in mouse P815B cells assessed as inhibition of tryptophan catabolism by measuring kynurenine production after 8 hrs by HPLC analysis
Quick reference for pIC50 among some compounds
Note on units: pIC50 is unitless, being -log10 of a concentration expressed in mol/L.

>  <Smiles representation>
COc1ccc2[nH]cc(/C=C/c3cccnc3)c2c1

>  <pIC50>
4.40

$$$$
>  <Smiles representation>
O=C(O)/C=C/c1c[nH]c2cc(F)ccc12

>  <pIC50>
5.52

$$$$
>  <Smiles representation>
C(=C\c1c[nH]c2ncccc12)/c1cccnc1

>  <pIC50>
4.74

$$$$
>  <Smiles representation>
Fc1cccc2c(/C=C/c3cccnc3)c[nH]c12

>  <pIC50>
4.30

$$$$
>  <Smiles representation>
Clc1ccc2c(/C=C/c3cccnc3)c[nH]c2c1

>  <pIC50>
4.70

$$$$
>  <Smiles representation>
Fc1ccc2c(/C=C/c3ccccc3)c[nH]c2c1

>  <pIC50>
4.40

$$$$

get_value(item= `Fc1ccc2[nH]cc(/C=C/c3cccnc3)c2c1` , readout=pIC50) returns 5.30

* * *

# Assay notes: Plasma concentration in DBA/2 mouse at 160 mg/kg/day, po administered for 7 days with water
# Assay type: ADME, organism-based
# Parameters: route oral
Quick reference for concentration at 168 h among some compounds
Field format: number, assumed µM, no unit text.

Worked cases, answers included:
>  <Smiles representation>
Fc1ccc2c(/C=C/c3nnn[nH]3)c[nH]c2c1

>  <concentration at 168 h [µM]>
60

$$$$
>  <Smiles representation>
O=C(O)/C=C/c1c[nH]c2cc(F)ccc12

>  <concentration at 168 h [µM]>
1.4

$$$$

get_value(item= `Fc1ccc2c(/C=C/c3cccnc3)c[nH]c2c1` , readout=concentration at 168 h) returns 0.1

* * *

# System under test: MAO-A (amine oxidase [flavin-containing] A) (Homo sapiens, UniProt P21397)
# Sequence (P21397 whole entry): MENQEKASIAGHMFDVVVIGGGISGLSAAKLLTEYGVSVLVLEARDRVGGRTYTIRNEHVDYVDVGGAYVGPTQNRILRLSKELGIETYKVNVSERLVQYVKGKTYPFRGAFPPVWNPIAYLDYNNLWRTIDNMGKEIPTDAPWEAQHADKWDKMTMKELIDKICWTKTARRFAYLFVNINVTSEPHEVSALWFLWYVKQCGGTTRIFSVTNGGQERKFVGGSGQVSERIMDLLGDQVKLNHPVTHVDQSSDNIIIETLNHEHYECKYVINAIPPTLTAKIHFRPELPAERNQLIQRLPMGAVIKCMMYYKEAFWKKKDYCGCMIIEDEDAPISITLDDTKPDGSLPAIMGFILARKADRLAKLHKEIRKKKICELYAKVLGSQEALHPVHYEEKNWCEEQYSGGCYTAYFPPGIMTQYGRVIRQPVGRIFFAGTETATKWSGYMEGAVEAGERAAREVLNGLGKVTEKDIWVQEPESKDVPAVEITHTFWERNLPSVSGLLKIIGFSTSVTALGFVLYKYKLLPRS
# Assay notes: Inhibition of MAO-A at 10 uM relative to control
Attribute measured: inhibition at 10 µM

The compound `Fc1ccc2c(/C=C/c3nnn[nH]3)c[nH]c2c1` , when measured on MAO-A (amine oxidase [flavin-containing] A) (Homo sapiens, UniProt P21397), yielded inhibition at 10 µM of < 10%

* * *

# Assay notes: Cytotoxicity against mouse P815B cells […] by MTT assay
# Assay type: functional
# Assay setup: read-out: LD50 (the source's name)
Quick reference for CC50 among some molecules

Worked cases, answers included:
>  <Smiles representation>
Brc1ccc2c(/C=C/c3cccnc3)c[nH]c2c1

>  <Value reported>
> 200 µM

$$$$
>  <Smiles representation>
c1ccc2c(-c3nnn[nH]3)c[nH]c2c1

>  <Value reported>
> 80 µM

$$$$
>  <Smiles representation>
N#C/C=C/c1c[nH]c2cc(F)ccc12

>  <Value reported>
> 80 µM

$$$$
>  <Smiles representation>
C(=C\c1c[nH]c2ccccc12)/c1cccnc1

>  <Value reported>
> 80 µM

$$$$

get_value(item= `N#C/C(=C\c1c[nH]c2cc(F)ccc12)C(=O)O` , readout=CC50) returns > 80 µM

get_value(item= `COc1ccc2[nH]cc(/C=C/c3cccnc3)c2c1` , readout=CC50) returns > 80 µM
